test system: HL-60 (human promyelocytic leukemia cell line); assay: MTT cell viability (antiproliferative) assay, HL-60; settings: Vero (IC50) on HL-60 (IC50)
READOUT_KIND: SI (selectivity index)

q: So what does the record say about SI (selectivity index) for CC1=C(CO)C(=O)OC(C(C)C2CCC3C4CC=C5C(O)C=CC(=O)C5(C)C4CCC23C)C1 (stereo not shown) ?
a: >2.6

q: So what does the record say about SI (selectivity index) for CC1=C(CO)C(=O)OC(C(C)C2(O)CCC3C4CC(O)C56C=CC(OO5)C(=O)C6(C)C4CCC32C)C1 (stereo not shown) [Compound 2] ?
a: >1.5

q: So what does the record say about SI (selectivity index) for CC1=C(CO)C(=O)OC(C(C)C2CCC3C4CC(O)C5(C=O)CCC(=O)C5(C)C4CCC23C)C1 (stereo not shown) ?
a: >2.1

q: So what does the record say about SI (selectivity index) for CC1=C(CO)C(=O)OC(C(C)C2CCC3C4CC(O)C5(C=O)C=CC(=O)C5(C)C4CCC23C)C1 (stereo not shown) ?
a: >1.3
